Recorded PBM E-score values for a group of sequences are listed next.
# target-or-test-system: Pdr3 (UniProt P33200)
# Sequence: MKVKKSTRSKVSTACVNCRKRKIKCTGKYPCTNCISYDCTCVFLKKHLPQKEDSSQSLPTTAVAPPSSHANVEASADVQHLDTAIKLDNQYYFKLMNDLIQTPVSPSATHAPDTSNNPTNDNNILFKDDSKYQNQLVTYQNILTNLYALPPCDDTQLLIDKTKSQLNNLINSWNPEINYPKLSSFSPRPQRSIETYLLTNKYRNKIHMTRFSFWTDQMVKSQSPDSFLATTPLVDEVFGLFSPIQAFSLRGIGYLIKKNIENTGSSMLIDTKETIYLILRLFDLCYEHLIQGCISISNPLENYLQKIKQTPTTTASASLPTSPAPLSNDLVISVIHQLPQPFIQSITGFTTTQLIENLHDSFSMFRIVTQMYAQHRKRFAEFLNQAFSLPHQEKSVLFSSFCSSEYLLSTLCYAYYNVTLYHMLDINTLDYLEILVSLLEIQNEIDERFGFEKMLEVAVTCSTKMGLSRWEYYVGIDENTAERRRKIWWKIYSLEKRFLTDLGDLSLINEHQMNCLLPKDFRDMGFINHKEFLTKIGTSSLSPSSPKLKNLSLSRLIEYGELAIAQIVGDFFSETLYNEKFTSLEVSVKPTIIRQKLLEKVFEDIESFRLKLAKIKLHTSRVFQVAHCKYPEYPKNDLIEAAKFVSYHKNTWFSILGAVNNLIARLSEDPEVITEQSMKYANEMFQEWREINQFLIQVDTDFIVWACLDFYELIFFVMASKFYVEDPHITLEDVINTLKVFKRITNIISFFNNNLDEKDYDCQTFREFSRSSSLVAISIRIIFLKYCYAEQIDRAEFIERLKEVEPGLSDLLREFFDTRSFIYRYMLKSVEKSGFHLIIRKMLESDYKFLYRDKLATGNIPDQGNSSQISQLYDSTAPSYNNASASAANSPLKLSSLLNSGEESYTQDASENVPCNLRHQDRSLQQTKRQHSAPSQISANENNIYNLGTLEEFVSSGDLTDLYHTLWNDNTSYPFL
# method: PBM E-score (8-mer binding enrichment) (E-score (-0.5 to 0.5)); higher = stronger / more preferred TF binding
# protocol-conditions: protein concentration: 200 nM; construct: GST-full length
Over roughly 33,000 sequences, “E-score (-0.5 to 0.5)” has its median near -0.035; the highest 2% begin near 0.35. The sample holds the highest values, similar sequences and a random draw of the others, so the mix is not that of the screen.
Keep it simple and answer with nothing but the number.

Please review the following examples before continuing.
1. ACGGAAAC : 0.452
2. AGGAAGGC : -0.185

Task item: Query for Pdr3 (UniProt P33200): what PBM E-score does the record show for `CTTCATCC` ?
Reply: -0.00929
